# credit: paper PMC13083723

Can you tell me result_ITMP for the items I'm about to list?
- Tested on: Vero-E6
- TEST: primary screen, phospholipidosis by LipidTOX staining; higher = more effect of the substance
- MEASUREMENT CONTEXT: 10 µM
- From the text: To measure drug-induced PLD in Vero-E6 cells, we used the HCS LipidTOX Red Phospholipidosis Detection Reagent (Invitrogen, #H34351), which is non-toxic to cell growth and remains well retained after aldehyde fixation. […]
Hit rate of the full screen: of about 5,400 compounds, about 190 (3.5%) showed an effect of 50% or more. The full list was thinned out, with strong results kept by preference.
One number for each entry, in %.

Here's what some known entries look like.
{"COMPOUND": "CCCCCC(O)CCCC(=O)[O-] (stereo not drawn)", "OBS VALUE": -2.69}
{"COMPOUND": "C[C@@H]1CC[C@@]2(OC1)O[C@H]1C[C@H]3[C@@H]4CC=C5C[C@@H](O[C@@H]6O[C@H](CO)[C@@H](O[C@@H]7O[C@@H](C)[C@H](O)[C@@H](O)[C@H]7O)[C@H](O)[C@H]6O[C@@H]6O[C@@H](C)[C@H](O)[C@@H](O)[C@H]6O)CC[C@]5(C)[C@H]4CC[C@]3(C)[C@H]1[C@@H]2C", "OBS VALUE": 18.9}

(Q) Input CC(C)N(C[C@H]1O[C@@H](n2cnc3c(N)ncnc32)[C@H](O)[C@@H]1O)C1CC(CCc2nc3cc(C(C)(C)C)ccc3[nH]2)C1 (stereo partly drawn) , output reported result_ITMP.
(A) -3.75

----------
- Tested on: Vero-E6
- TEST: primary screen, phospholipidosis by LipidTOX staining; higher = more effect of the substance
- MEASUREMENT CONTEXT: 10 µM
Among all 5,400 compounds or so, about 190 (3.5%) showed an effect of 50% or more. The full list was thinned out, with strong results kept by preference.
ENDPOINT LABEL: result_ITMP (%)
Numbers only, in %.

Here's what some known entries look like.
{"MOLECULE": "O=C1Nc2ccc(Cl)c3c2C1(CCCCN1CC=C(c2ccc(Cl)cc2)CC1)CCC3 (stereo not shown)", "UNIT NAME": "%", "result_ITMP": 70.2}
{"MOLECULE": "Cc1ccc(C(=O)N(CCCN)[C@@H](c2nc3cc(Cl)ccc3c(=O)n2Cc2ccccc2)C(C)C)cc1", "UNIT NAME": "%", "result_ITMP": 75.7}
{"MOLECULE": "CCCCC(CC)CCC(CC(C)C)OS(=O)(=O)[O-] (stereo not shown)", "UNIT NAME": "%", "result_ITMP": -1.42}
{"MOLECULE": "CN1CCC(Nc2ncc3ncnc(Nc4ccc(F)c(Cl)c4)c3n2)CC1", "UNIT NAME": "%", "result_ITMP": 76.5}

Below are some molecules; for each one, tell me its result_ITMP.
1. O=C(O)c1ccc2[nH]cc(CCCCN3CC=C(c4ccccc4)CC3)c2c1
2. C1CCC(N/C(=N/C23CC4CC(CC(C4)C2)C3)N2CCOCC2)CC1

(A)
1: -12.5; 2: -0.26

Below are some molecules; for each one, tell me its result_ITMP.
1. O=S(=O)([O-])CCS
2. COc1cccc(Nc2ncnn3ccc(CN4CC[C@@H](N)[C@H](O)C4)c23)c1
3. C=CC(=O)Nc1cc2c(Nc3ccc(F)c(Cl)c3)ncnc2cc1C#CC(C)(C)N1CCN(C)CC1
4. CC(C)(C)NCC(O)COc1cccc2c1C[C@H](O)[C@H](O)C2 (mixture of isomers)

(A)
[-2.99, 59, 36.6, -2.49]
